Ref: paper PMC6002460

Measured pKi, listed per entry for reference.
- tgt: human CB2 receptor (Homo sapiens)
- Sequence (P34972 whole entry): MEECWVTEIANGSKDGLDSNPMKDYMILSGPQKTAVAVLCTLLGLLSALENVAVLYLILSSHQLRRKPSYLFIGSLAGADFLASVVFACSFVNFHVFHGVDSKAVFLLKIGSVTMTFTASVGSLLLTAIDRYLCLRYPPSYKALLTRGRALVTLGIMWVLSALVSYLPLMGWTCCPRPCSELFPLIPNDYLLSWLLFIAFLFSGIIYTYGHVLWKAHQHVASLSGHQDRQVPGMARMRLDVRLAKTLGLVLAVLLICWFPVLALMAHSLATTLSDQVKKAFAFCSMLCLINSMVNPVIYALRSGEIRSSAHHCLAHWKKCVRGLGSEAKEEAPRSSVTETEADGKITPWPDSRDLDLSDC
pKi: −log10 of the molar value.
property.name: pKi

- O=C(c1ccc2c(c1)c1ccccc1n2CCCCCF)c1cccc2ccccc12: 8.36
- COC(=O)[C@@H](NC(=O)c1nn(Cc2ccc(F)cc2)c2ccccc12)C(C)C: 9.27
- COC(=O)[C@@H](NC(=O)c1nn(CC2CCCCC2)c2ccccc12)C(C)(C)C: 9.65
- CCCCCn1cc(C(=O)N[C@H](C(=O)OC)C(C)C)c2ccccc21: 7.85

----------
- tgt: human CB1 receptor (Homo sapiens)
- Construct: expressed in transfected cells; host or cells: CHO cells (membrane preparations)
- Sequence (P21554 whole entry): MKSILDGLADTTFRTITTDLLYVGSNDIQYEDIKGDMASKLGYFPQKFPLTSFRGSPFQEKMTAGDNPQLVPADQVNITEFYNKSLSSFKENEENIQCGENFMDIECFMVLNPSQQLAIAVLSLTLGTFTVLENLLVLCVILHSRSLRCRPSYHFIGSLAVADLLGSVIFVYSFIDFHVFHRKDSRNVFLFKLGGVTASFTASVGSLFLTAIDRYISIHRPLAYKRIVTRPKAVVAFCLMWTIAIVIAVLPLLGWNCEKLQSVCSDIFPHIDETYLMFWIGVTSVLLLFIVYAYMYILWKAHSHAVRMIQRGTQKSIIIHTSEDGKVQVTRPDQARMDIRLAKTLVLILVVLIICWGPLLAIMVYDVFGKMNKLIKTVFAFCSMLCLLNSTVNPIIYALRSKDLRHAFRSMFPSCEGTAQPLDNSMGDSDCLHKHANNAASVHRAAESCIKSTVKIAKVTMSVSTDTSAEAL
- experimental.details: biochemical
- Type: binding
- condition.notes: [3H]CP55,940 0.1 nM, CHO cell membranes; read-out: Ki ± SEM Human CB1
property.name: Ki (nM)

• CCCCCn1cc(C(=O)NC(C)(C)c2ccccc2)c2ccccc21 = 3.27
• O=C(c1ccc(Cl)c2ccccc12)c1cn(CCCCCF)c2ccccc12 = 0.772
• COC(=O)[C@@H](NC(=O)c1cn(CCCCCF)c2ccccc12)C(C)C = 15.2
• CCCCCn1nc(C(=O)N[C@H](C(=O)OC)C(C)C)c2ccccc21 = 0.866

----------
- tgt: human GPR55 (Homo sapiens, UniProt Q9Y2T6)
- Construct: host or cells: CHO cells
- Sequence (Q9Y2T6 whole entry): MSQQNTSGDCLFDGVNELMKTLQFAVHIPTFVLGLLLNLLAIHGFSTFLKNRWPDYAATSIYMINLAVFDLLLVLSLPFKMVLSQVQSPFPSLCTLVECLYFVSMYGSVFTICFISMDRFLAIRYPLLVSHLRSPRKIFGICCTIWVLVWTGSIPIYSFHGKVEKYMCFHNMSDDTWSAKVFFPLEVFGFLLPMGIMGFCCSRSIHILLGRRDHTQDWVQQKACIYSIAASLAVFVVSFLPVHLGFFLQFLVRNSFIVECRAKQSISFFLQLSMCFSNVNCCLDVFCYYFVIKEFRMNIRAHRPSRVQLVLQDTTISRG
- experimental.details: β-Arrestin PathHunter assay, recombinant CHO cells expressing GPR55
- Format: cell-based
- condition.notes: agonist mode; read-out: Human GPR55 EC50
pEC50: −log10 of the molar value.
property.name: pEC50

• COC(=O)C(NC(=O)c1ccc2c(c1)c1ccccc1n2CC1CCCCC1)C(C)(C)C (stereo not shown) = < 5.00
• CCCCCn1c2ccccc2c2cc(C(=O)c3cccc4ccccc34)ccc21 = < 5.00
• O=C(c1ccc2c(c1)c1ccccc1n2CCCCCF)c1cccc2ccccc12 = < 5.00
• O=C(c1cccc2ccccc12)c1nc2ccccc2n1CCCCCF = < 5.00

----------
- tgt: human GPR18 (Homo sapiens)
- Construct: host or cells: CHO cells
- experimental.details: β-Arrestin PathHunter assay, recombinant CHO cells expressing GPR18
- Type: cell-based
- condition.notes: antagonist mode, value in parentheses
property.name: Human GPR18 % inhibition (%)

• COC(=O)[C@@H](NC(=O)c1nn(Cc2ccc(F)cc2)c2ccccc12)C(C)C = 11
• NC(=O)[C@H](Cc1ccccc1)NC(=O)c1nn(CC2CCCCC2)c2ccccc12 = 57
• O=C(c1ccc2c(c1)c1ccccc1n2CCCCCF)c1cccc2ccccc12 = 7
• COC(=O)[C@@H](NC(=O)c1nn(Cc2ccc(F)cc2)c2ccccc12)C(C)(C)C = 31
• O=C(c1ccc(Cl)c2ccccc12)c1cn(CCCCCF)c2ccccc12 = 4
• CC(C)[C@H](NC(=O)c1nn(CC2CCCCC2)c2ccccc12)C(N)=O = 11
• CCCCCn1nc(C(=O)N[C@H](C(=O)OC)C(C)C)c2ccccc21 = 15

----------
- tgt: human GPR18 (Homo sapiens)
- Construct: host or cells: CHO cells
- experimental.details: β-Arrestin PathHunter assay, recombinant CHO cells expressing GPR18
- Format: cell-based
- condition.notes: agonist mode, value in parentheses
Everything with Human GPR18 % activation lower than 7% is not met; everything else, including exactly 7%, is met.

- COC(=O)[C@@H](OC(=O)c1nn(CC2CCCCC2)c2ccccc12)C(C)(C)C [compound 34]: not met
- NC(=O)[C@H](Cc1ccccc1)NC(=O)c1nn(Cc2ccc(F)cc2)c2ccccc12 [compound 29, APP-FUBINACA]: not met
- NC(=O)[C@H](Cc1ccccc1)NC(=O)c1nn(CC2CCCCC2)c2ccccc12 [compound 30]: not met
- CC(C)[C@H](NC(=O)c1nn(Cc2ccccc2F)c2ccccc12)C(N)=O [compound 19, AB-FUBINACA (2-F-benzyl-isomer)]: met
- CC(C)[C@H](NC(=O)c1nn(CCCCCF)c2ccccc12)C(N)=O [compound 16, 5F-AB-PINACA]: met
- CC(C)[C@H](NC(=O)c1nn(CC2CCCCC2)c2ccccc12)C(N)=O [compound 20]: met

----------
- tgt: human GPR18 (Homo sapiens, UniProt Q14330)
- Construct: host or cells: CHO cells
- Sequence (Q14330 whole entry): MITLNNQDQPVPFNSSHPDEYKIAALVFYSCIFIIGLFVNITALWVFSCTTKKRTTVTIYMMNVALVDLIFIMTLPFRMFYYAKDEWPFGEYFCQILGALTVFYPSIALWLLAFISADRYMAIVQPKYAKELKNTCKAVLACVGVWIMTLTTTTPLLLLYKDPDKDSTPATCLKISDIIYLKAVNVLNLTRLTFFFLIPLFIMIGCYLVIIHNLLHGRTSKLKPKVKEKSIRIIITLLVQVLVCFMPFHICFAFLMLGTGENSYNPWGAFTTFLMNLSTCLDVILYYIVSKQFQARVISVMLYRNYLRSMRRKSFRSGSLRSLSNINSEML
- experimental.details: β-Arrestin PathHunter assay, recombinant CHO cells expressing GPR18
- Assay type: cell-based
- condition.notes: extrapolated value; full curve could not be determined due to limited solubility; read-out: Human GPR18 IC50 (extrapolated)
pIC50: −log10 of the molar value.
property.name: pIC50

• COC(=O)C(NC(=O)c1ccc2c(c1)c1ccccc1n2CC1CCCCC1)C(C)(C)C (stereo not shown) = 5.02

----------
- tgt: human GPR55 (Homo sapiens)
- Construct: host or cells: CHO cells
- experimental.details: β-Arrestin PathHunter assay, recombinant CHO cells expressing GPR55
- Format: cell-based
pIC50: −log10 of the molar value.
property.name: pIC50

* CC(C)(C)[C@H](NC(=O)c1nn(CC2CCCCC2)c2ccccc12)C(N)=O [compound 25] | < 5.00
* COC(=O)[C@@H](NC(=O)c1nn(CCCCCF)c2ccccc12)C(C)(C)C [compound 11, 5F-ADB] | < 5.00
* COC(=O)[C@@H](NC(=O)c1nn(CC2CCCCC2)c2ccccc12)C(C)(C)C [compound 14] | 4.99
* CC(C)[C@H](NC(=O)c1nn(CC2CCCCC2)c2ccccc12)C(N)=O [compound 20] | < 5.00
* CC(C)(C)[C@H](NC(=O)c1nn(CCCCCF)c2ccccc12)C(N)=O [compound 23, 5F-ADB-PINACA] | < 5.00
* CC(C)[C@H](NC(=O)c1nn(CCCCCCl)c2ccccc12)C(N)=O [compound 17, 5Cl-AB-PINACA] | < 5.00
* COC(=O)[C@@H](NC(=O)c1nn(CC2CCCCC2)c2ccccc12)C(C)C [compound 10] | < 5.00
* CC[C@H](C)[C@H](NC(=O)c1nn(CCCCCF)c2ccccc12)C(N)=O (single isomer, unassigned; isomer 2) [compound 26, 5F-ADB-PINACA-isomer 2] | < 5.00
* NC(=O)[C@H](Cc1ccccc1)NC(=O)c1nn(Cc2ccc(F)cc2)c2ccccc12 [compound 29, APP-FUBINACA] | < 5.00
* CC(C)[C@H](NC(=O)c1cn(CCCCCF)c2ccccc12)C(N)=O [compound 15, 5F-AB-PICA] | < 5.00
* COC(=O)[C@@H](NC(=O)c1cn(CCCCCF)c2ccccc12)C(C)C [compound 7, MMB-2201] | < 5.00
* O=C(c1ccc(Cl)c2ccccc12)c1cn(CCCCCF)c2ccccc12 [compound 37, Cl-2201] | 5.15
* NC(=O)[C@H](Cc1ccccc1)NC(=O)c1nn(CCCCCF)c2ccccc12 [compound 28, PX-2] | < 5.00
* COC(=O)[C@@H](NC(=O)c1nn(Cc2ccc(F)cc2)c2ccccc12)C(C)(C)C [compound 12, MDMB-FUBINACA] | < 5.00
* CC(C)(NC(=O)c1nn(CC2CCOCC2)c2ccccc12)c1ccccc1 [compound 33] | < 5.00
* CC(C)(NC(=O)c1cn(CCCCCF)c2ccccc12)c1ccccc1 [compound 32, 5F-Cumyl-PICA] | < 5.00
* COC(=O)[C@@H](NC(=O)c1cn(CC2CCCCC2)c2ccccc12)C(C)(C)C [compound 13, MDMB-CHMICA] | < 5.00
* O=C(c1cccc2ccccc12)c1cn(Cc2ccc(F)cc2)c2ccccc12 [compound 35, FUB-JWH-018] | < 5.00

----------
- tgt: human GPR18 (Homo sapiens)
- Construct: host or cells: CHO cells
- experimental.details: β-Arrestin PathHunter assay, recombinant CHO cells expressing GPR18
- Assay type: cell-based
- condition.notes: antagonist mode, value in parentheses
Reported Human GPR18 % inhibition is given for each of the following molecules.
property.name: Human GPR18 % inhibition (%)

- CC(C)(C)[C@H](NC(=O)c1nn(Cc2ccc(F)cc2)c2ccccc12)C(N)=O: 16
- NC(=O)[C@H](Cc1ccccc1)NC(=O)c1nn(Cc2ccc(F)cc2)c2ccccc12: 21
- CC(C)[C@H](NC(=O)c1nn(CCCCCCl)c2ccccc12)C(N)=O: 0
- CC(C)(NC(=O)c1nn(CC2CCOCC2)c2ccccc12)c1ccccc1: 9
- CC(C)(C)[C@H](NC(=O)c1nn(CCCCCF)c2ccccc12)C(N)=O: 21
- COC(=O)[C@@H](NC(=O)c1nn(CC2CCCCC2)c2ccccc12)C(C)(C)C: 51
- O=C(c1ccc(F)c2ccccc12)c1cn(CCCCCF)c2ccccc12: 14
- CC(C)(C)[C@H](NC(=O)c1cn(CC2CCCCC2)c2ccccc12)C(N)=O: 14
- O=C(c1cccc2ccccc12)c1cn(Cc2ccc(F)cc2)c2ccccc12: 30
- NC(=O)[C@H](Cc1ccccc1)NC(=O)c1nn(CCCCCF)c2ccccc12: 15
- O=C(c1cccc2ccccc12)c1nc2ccccc2n1CCCCCF: 14
